Where these numbers come from: patent USRE48461E1

- Tested on: prostate-specific antigen (PSA) mRNA
- ASSAY_TEXT: PSA mRNA levels in LMR20 cells
- Type: cell-based, human
- DETAILS: LMR20 cells, DHT 10 nM 72 hrs, ASO 0.20 μM
Oligonucleotides are written 5' to 3', each unit as a sugar letter and its base; * is a phosphorothioate linkage, no mark a phosphodiester; rarer units and linkages stand in square brackets, end groups in braces. Plain capitals give the bases only. e = 2'-O-(2-methoxyethyl) (MOE); l = locked nucleic acid (LNA); k = constrained ethyl (cEt); [5mC] = 5-methylcytosine; d = 2'-deoxy (DNA)
PROPERTY_LABEL: PSA mRNA levels (% baseline value) after treatment with DHT
Use % baseline value as the unit, but write only the number.

SUBSTANCE	MEASURED_TARGET	OBSERVED_VALUE
549458 (kG*kT*kT*dG*dA*dT*dT*dT*dA*dA*dT*dG*dG*kT*kT*kG) [compound 549458]	prostate-specific antigen (PSA) mRNA	71

Please supply the value of reported PSA mRNA levels (% baseline value) after treatment with DHT for the item 560131 (antisense kT*kT*kG*dA*dT*dT*dT*dA*dA*dT*dG*dG*kT*kT*kG*e[5mC]) [compound 560131] 61

For the substance 569236 (antisense eT*kG*kA*kT*dT*dT*dA*dA*dT*dG*dG*kT*kT*kG*e[5mC]*eA) [compound 569236] , give its measured PSA mRNA levels (% baseline value) after treatment with DHT value. 79

Entry 554221 (ACCAAGTTTCTTCAGC; sugars from the 5' end l3 d10 l3, all phosphorothioate, methylation of C not given here) [compound 554221] needs its PSA mRNA levels (% baseline value) after treatment with DHT filled in; supply it. 86
